experiment: Vero cells viability qHTS for Zika virus inhibitors (AID 1347167); conditions: cytotoxicity counter-screen (Zika); series mostly up to 45.9 µM
Inconclusive results are not listed. Activity calls are given as the source filed them. Calls come from the whole dose curve; as a rule, active = well fitted cell-killing curve with a large enough effect; inconclusive = small, poorly fitted or top-dose-only effect; inactive = flat fitted curve, though single readings scatter.
PROPERTY_NAME: outcome

Solved entries:
[[record]]
compound = "CN1CCN(CCCN2c3ccccc3Sc3ccc(C(F)(F)F)cc32)CC1"
property_name = "outcome"
value_reported = "inactive"

[[record]]
compound = "COCC(=O)NCC=Cc1ccc2ncnc(Nc3ccc(Oc4ccc(C)nc4)c(C)c3)c2c1"
property_name = "outcome"
value_reported = "inactive"

[[record]]
compound = "Cc1cc(SCc2sc(-c3ccc(C(F)(F)F)cc3)nc2C)ccc1OCC(=O)O"
property_name = "outcome"
value_reported = "inactive"

[[record]]
compound = "Cn1cnc([N+](=O)[O-])c1Sc1ncnc2nc[nH]c12"
property_name = "outcome"
value_reported = "inactive"

[[record]]
compound = "CCn1cc(C(=O)O)c(=O)c2cc(F)c(N3CCNC(C)C3)c(F)c21 (stereo not drawn)"
property_name = "outcome"
value_reported = "inactive"

[[record]]
compound = "O=c1n(CCCN2CCN(c3cccc(Cl)c3)CC2)nc2ccccn12"
property_name = "outcome"
value_reported = "inactive"


Request: Tell me measured outcome for COc1ccccc1-c1cccc(-c2c(O)c3cc(C#N)c(Cl)cc3[nH]c2=O)c1 please.
Result: inactive

Request: Tell me measured outcome for CCN(CC)CCCC(C)Nc1ccnc2cc(Cl)ccc12 (stereo not drawn) please.
Result: inactive

----------
Experiment: qHTS of pediatric cancer cell lines to identify multiple opportunities for drug repurposing: Primary screen for DAOY cells (AID 1347090); note: nearly all actives have a fitted effect of over 55% in size; note: potency is the fitted concentration of half-maximal effect
Details: DAOY medulloblastoma viability, CellTiter-Glo luminescence, 48 h; series mostly up to 46 µM
Method: Drug repurposing or repositioning has been offered as a strategy for drug development in oncology programs. […] [1] Shen, M et al. Quantitative high-throughput phenotypic screening of pediatric cancer cell lines identifies multiple opportunities for drug repurposing. […] Cells were assayed in growth media at a density of 500-1,000 cells/well. […] After a 15 min incubation at room temperature, samples were analyzed for luminescence intensity using a ViewLux High-throughput CCD imager equipped with clear filters.
Results filed as inconclusive are left out. Activity calls are given as the source filed them. Calls follow the shape of the dose curve; as a rule, active = well fitted cell-killing curve with a large enough effect; inconclusive = small, poorly fitted or top-dose-only effect; inactive = flat fitted curve, though single readings scatter.
PROPERTY_NAME: Potency

[[record]]
structure_notation = "Cc1cc(Nc2nc(N[C@@H](C)c3ncc(F)cn3)ncc2Cl)n[nH]1"
property_name = "Potency"
value_reported = "2.96 µM (active)"

[[record]]
structure_notation = "COc1ccccc1-c1cccc(-c2c(O)c3cc(C#N)c(Cl)cc3[nH]c2=O)c1"
property_name = "Potency"
value_reported = "inactive"

[[record]]
structure_notation = "C[C@]12CCC(=O)C=C1CC[C@@H]1[C@@H]2[C@@H](O)C[C@@]2(C)[C@H]1CC[C@]2(O)C(=O)CO"
property_name = "Potency"
value_reported = "inactive"

[[record]]
structure_notation = "CCCCNc1cc(C(=O)O)cc(S(N)(=O)=O)c1Oc1ccccc1"
property_name = "Potency"
value_reported = "inactive"


Request: Tell me measured Potency for CNC(=O)c1ccc(N2C(=S)N(c3ccc(C#N)c(C(F)(F)F)c3)C(=O)C2(C)C)cc1F please.
Result: inactive

----------
test system: Tov-21-G; test: Primary qHTS to identify gynecologic anti-cancer compounds using libraries of approved drugs and bioactive compounds (AID 1345084); settings: Gynecologic cancer cell panel viability, ATPlite luminescence, 48 h; series mostly up to 57.5 µM; note: nearly all actives have a fitted effect of over 55% in size
Records with an inconclusive call do not appear. Calls of active or inactive are those of the source. The call rests on the fitted dose curve; in most records, active means well fitted cell-killing curve with a large enough effect; inconclusive means small, poorly fitted or top-dose-only effect, or effect the other way; inactive means flat fitted curve, though single readings scatter.
PROPERTY_NAME: outcome

Solved entries:
[[record]]
molecule = "CCC(C)(C)C(=O)O[C@H]1C[C@@H](C)C=C2C=C[C@H](C)[C@H](CC[C@@H]3C[C@@H](O)CC(=O)O3)[C@H]21"
value_reported = "inactive"

[[record]]
molecule = "CCc1cncnc1N1CCN(Cc2nc3ccc(C(F)(F)F)cc3[nH]2)CC1"
value_reported = "inactive"

[[record]]
molecule = "NC[C@H](O)c1ccc(O)c(O)c1"
value_reported = "inactive"

[[record]]
molecule = "CC(=O)Oc1ccccc1C(=O)O"
value_reported = "inactive"

[[record]]
molecule = "CCOC(=O)C1=C[C@]2(CC)CCCN3CCc4c(n1c1ccccc41)[C@@H]32"
value_reported = "inactive"


Request: Tell me measured outcome for O=c1[nH]cnc2[nH]ncc12 please.
Result: inactive

Request: Tell me measured outcome for COc1ccc2nc(S(=O)Cc3ncc(C)c(OC)c3C)[nH]c2c1 (stereo unspecified) please.
Result: inactive

Request: Tell me measured outcome for Cc1[nH]c(=O)c(C#N)cc1-c1ccc2nccn2c1 please.
Result: inactive

Request: Tell me measured outcome for CNCc1ccc(-c2[nH]c3cc(F)cc4c3c2CCNC4=O)cc1 please.
Result: inactive

Request: Tell me measured outcome for NC(N)=NC(=O)c1nc(Cl)c(N)nc1N please.
Result: inactive

Request: Tell me measured outcome for Cc1ccccc1C(OCCN(C)C)c1ccccc1 (stereo unspecified) please.
Result: inactive

----------
tested on: CP269; assay: qHTS profiling for inhibitors of Plasmodium falciparum proliferation (AID 504749); note: nearly all actives have a fitted effect of over 60% in size; note: potency is the fitted concentration of half-maximal effect; details: P. falciparum in erythrocytes, SYBR Green DNA, 72 h; series mostly up to 28.7 µM
Results filed as inconclusive are left out. Active and inactive are the calls of the source. Calls come from the whole dose curve; as a rule, active = well fitted inhibition curve with a large enough effect; inconclusive = small, poorly fitted or top-dose-only effect; inactive = flat fitted curve, though single readings scatter.
PROPERTY_NAME: Potency

Solved entries:
[[record]]
compound = "Nc1nc2ccc(OC(F)(F)F)cc2s1"
property_name = "Potency"
value_reported = "inactive"

[[record]]
compound = "CC(=O)Oc1ccccc1C(=O)O"
property_name = "Potency"
value_reported = "inactive"

[[record]]
compound = "CN1CCN(CCCN2c3ccccc3Sc3ccc(C(F)(F)F)cc32)CC1"
property_name = "Potency"
value_reported = "15.1 µM (active)"

[[record]]
compound = "N#Cc1ccc(C(c2ccc(C#N)cc2)n2cncn2)cc1"
property_name = "Potency"
value_reported = "inactive"

[[record]]
compound = "NS(=O)(=O)c1cc2c(cc1Cl)NC=NS2(=O)=O"
property_name = "Potency"
value_reported = "inactive"

[[record]]
compound = "CCOC(=O)C1=C[C@]2(CC)CCCN3CCc4c(n1c1ccccc41)[C@@H]32"
property_name = "Potency"
value_reported = "13.5 µM (active)"

[[record]]
compound = "O=C1CCc2cc(OCCCCc3nnnn3C3CCCCC3)ccc2N1"
property_name = "Potency"
value_reported = "inactive"

[[record]]
compound = "Cc1[nH]c(=O)c(C#N)cc1-c1ccc2nccn2c1"
property_name = "Potency"
value_reported = "inactive"


Request: Tell me measured Potency for C1COC(NC(C2CC2)C2CC2)=N1 please.
Result: inactive

Request: Tell me measured Potency for NCCCC(N)(C(=O)O)C(F)F (stereo unspecified) please.
Result: inactive

Request: Tell me measured Potency for NCCc1ccc(O)c(O)c1 please.
Result: inactive

----------
test: Quantitative High-Throughput drug screen in 47 multiple myeloma cell lines against the NCATS MIPE library collection: LP1_DSMZ cell viability assay (AID 1918982); conditions: LP1 myeloma viability, CellTiter-Glo ATP luminescence, 48 h; series mostly up to 45.8 µM; note: nearly all actives have a fitted effect of over 35% in size
Records with an inconclusive call do not appear. Activity calls are given as the source filed them. Calls follow the shape of the dose curve; as a rule, active = well fitted cell-killing curve with a large enough effect; inconclusive = small, poorly fitted or top-dose-only effect, or effect the other way; inactive = no such curve, though single readings can be large or run the other way.
// allowed return values: active, inactive

Reference set (6 entries):
[[record]]
compound = "CCOC(=O)C1=C[C@]2(CC)CCCN3CCc4c(n1c1ccccc41)[C@@H]32"
label_value = "active"

[[record]]
compound = "NC(N)=NC(=O)c1nc(Cl)c(N)nc1N"
label_value = "inactive"

[[record]]
compound = "O=C(Nc1ccc(F)c(C(F)(F)F)c1)Nc1nnc(-c2ccncc2)s1"
label_value = "active"

[[record]]
compound = "S=C(NCc1ccc2c(c1)OCO2)N1CCN(c2ncnc3c2oc2ccccc23)CC1"
label_value = "active"

[[record]]
compound = "NC(=O)C1CCCc2c1[nH]c1ccc(Cl)cc21 (stereo not given)"
label_value = "inactive"

[[record]]
compound = "Clc1ccc(Nc2nnc(Cc3ccncc3)c3ccccc23)cc1"
label_value = "active"


Request: Could you check what this test reported for CC(C)(C)OC(=O)CN(Cc1ccc(Cl)cc1)Cc1ccc([N+](=O)[O-])s1 ?
Result: active

----------
system: HB3; assay: qHTS profiling for inhibitors of Plasmodium falciparum proliferation (AID 504749); note: nearly all actives have a fitted effect of over 60% in size; note: potency is the fitted concentration of half-maximal effect; details: P. falciparum in erythrocytes, SYBR Green DNA, 72 h; series mostly up to 28.7 µM
Records with an inconclusive call do not appear. Active and inactive are the calls of the source. Calls come from the whole dose curve; as a rule, active = well fitted inhibition curve with a large enough effect; inconclusive = small, poorly fitted or top-dose-only effect; inactive = flat fitted curve, though single readings scatter.
PROPERTY_NAME: Potency

[[record]]
molecule = "O=NN(CCCl)C(=O)NCCCl"
value_reported = "inactive"

[[record]]
molecule = "CCCc1nc2c(C)cc(-c3nc4ccccc4n3C)cc2n1Cc1ccc(-c2ccccc2C(=O)O)cc1"
value_reported = "10 µM (active)"

[[record]]
molecule = "COc1ccc2nc(S(=O)Cc3ncc(C)c(OC)c3C)[nH]c2c1 (stereo not given)"
value_reported = "inactive"

[[record]]
molecule = "O=c1n(CCCN2CCN(c3cccc(Cl)c3)CC2)nc2ccccn12"
value_reported = "inactive"


Would you kindly look at the next entry?
Request: Tell me measured Potency for Cc1cn[nH]c1 please.
Result: inactive
